# Tested on: P94_40
# Method: qHTS profiling for inhibitors of Plasmodium falciparum proliferation (AID 504749); further: nearly all actives have a fitted effect of over 60% in size
# Measurement Conditions: P. falciparum in erythrocytes, SYBR Green DNA, 72 h; series mostly up to 28.7 µM
Inconclusive results are not listed. Calls of active or inactive are those of the source. The call rests on the fitted dose curve; in most records, active means well fitted inhibition curve with a large enough effect; inconclusive means small, poorly fitted or top-dose-only effect; inactive means flat fitted curve, though single readings scatter.
Allowed answers: True = active, False = inactive

Some solved entries appear below for comparison.
O=c1[nH]c(=O)n([C@H]2C[C@H](O)[C@@H](CO)O2)cc1Br : False
O=C(O)CN(CCN(CC(=O)O)CC(=O)O)CCN(CC(=O)O)CC(=O)O : False
CCn1ccnc1CC1COc2ccccc2O1 (stereo not given) : False
CCCCNC(=O)NS(=O)(=O)c1ccc(C)cc1 : False
C[C@H](CS)C(=O)N1CCC[C@H]1C(=O)O : False
c1cnc(N2CCN(Cc3ccc4c(c3)OCO4)CC2)nc1 : False
Cc1ccc(Cl)c(Nc2ccccc2C(=O)O)c1Cl : False
OCCN1CCN(CCCN2c3ccccc3C=Cc3ccccc32)CC1 : True

Kindly provide the recorded test outcome for the following compound: CCN1CCc2nc(N)oc2CC1
False

Assay outcome for CN1CCN(C2=Nc3ccccc3Oc3ccc(Cl)cc32)CC1 : what was it?
False

Each compound tested received a call. Report the one for CCN(CC)CCNC(=O)c1cc(S(C)(=O)=O)ccc1OC .
False

Look up the recorded call for CCOC(=O)C1=C(C)NC(C)=C(C(=O)OC)C1c1cccc(Cl)c1Cl (stereo not given) in this test.
False

Hello, I am checking results. What call was entered for C=CCc1ccccc1OCC(O)CNC(C)C (stereo not given) ?
True

Each compound tested received a call. Report the one for NC(=O)c1ncn([C@@H]2O[C@H](CO)[C@@H](O)[C@H]2O)c1O .
False

Per the assay record, what outcome was assigned to C#CCN(C)CCCOc1ccc(Cl)cc1Cl ?
False

// param item: Nc1c2c(nc3ccccc13)CCCC2O (stereo not given) ; yields the recorded call
False

Test call, this compound: CCOC(=O)C1=C(C)NC(C)=C(C(=O)OC)C1c1cccc([N+](=O)[O-])c1 (stereo not given)
True

Query: recorded result category for Nc1ncn([C@@H]2O[C@H](CO)[C@@H](O)[C@H]2O)c(=O)n1 in this test
False

Fill in: this test's call for CC(=O)Oc1cc(C(C)C)c(OCCN(C)C)cc1C is ___
False

Hi, do you know how NC(=Nc1ccccc1)Nc1ccccc1 came out in this test?
False

----------
# Method: qHTS for differential inhibitors of proliferation of Plasmodium falciparum line 3D7 (AID 1876)
# Measurement Conditions: P. falciparum 3D7 proliferation inhibition; series mostly up to 28.7 µM
Records with an inconclusive call do not appear. The source made the active and inactive calls. Calls come from the whole dose curve; as a rule, active = well fitted curve in the direction sought with a large enough effect; inconclusive = small, poorly fitted or top-dose-only effect, or another doubt; inactive = no such curve, though single readings can be large or run the other way.
# valid calls are True for active, False for inactive; nothing else

Study these solved cases before continuing.
CC(C)[N+](C)(CCOC(=O)C1c2ccccc2Oc2ccccc21)C(C)C : True
C[C@]12C=CC(=O)C=C1CC[C@H]1[C@@H]3C[C@@H](O)[C@](O)(C(=O)CO)[C@@]3(C)C[C@H](O)[C@@]12F : False
CCN(CC)CC(=O)Nc1c(C)cccc1C : False
c1ccc2c(c1)CCCC2C1=NCCN1 (stereo unspecified) : False
NS(=O)(=O)c1cc2c(cc1Cl)NC(C1CC3C=CC1C3)NS2(=O)=O (stereo unspecified) : False

Check the results log: what was the call for Cc1nc2c([nH]1)c(=O)n(C)c(=O)n2Cc1ccco1 ?
False

Hi, do you know how COc1cc(C(=O)OCCCN2CCCN(CCCOC(=O)c3cc(OC)c(OC)c(OC)c3)CC2)cc(OC)c1OC came out in this test?
True

----------
# System: P93_24
# Method: qHTS profiling for inhibitors of Plasmodium falciparum proliferation (AID 504749); further: nearly all actives have a fitted effect of over 60% in size
# Measurement Conditions: P. falciparum in erythrocytes, SYBR Green DNA, 72 h; series mostly up to 28.7 µM
Records with an inconclusive call do not appear. Activity calls are given as the source filed them. The call rests on the fitted dose curve; in most records, active means well fitted inhibition curve with a large enough effect; inconclusive means small, poorly fitted or top-dose-only effect; inactive means flat fitted curve, though single readings scatter.
The reply should be one of these categories: active, inactive

Study these solved cases before continuing.
Nc1nc(N)c2nc(-c3ccccc3)c(N)nc2n1 : inactive
O=C(O)CCCCCCCC(=O)O : inactive
O=C(O)CP(=O)(O)O : inactive
COC(=O)[C@H]1[C@H]2C[C@@H]3c4[nH]c5cc(OC)ccc5c4CCN3C[C@H]2C[C@@H](OC(=O)c2cc(OC)c(OC)c(OC)c2)[C@@H]1OC : active
C[N+](C)(C)CCCCCCCCCC[N+](C)(C)C : active
Cc1ccc(=O)n(-c2ccccc2)c1 : inactive

Hi team, can someone confirm the assay call for C[C@]12CCC(=O)C=C1CC[C@@H]1[C@@H]2CC[C@@]2(C)[C@H]1CC[C@]2(O)C(=O)CO ?
inactive

Check the results log: what was the call for CCN(CC)CCNC(=O)c1cc(S(C)(=O)=O)ccc1OC ?
inactive

Hey, what did the test say about C[C@H](CS)C(=O)N1CCC[C@H]1C(=O)O ?
inactive

Hi team, can someone confirm the assay call for CN1CCN(CC(=O)N2c3ccccc3C(=O)Nc3cccnc32)CC1 ?
inactive

Check the results log: what was the call for CCCCNC(=O)NS(=O)(=O)c1ccc(C)cc1 ?
inactive

----------
# Method: qHTS of Trypanosoma Brucei Inhibitors: LOPAC Validation (AID 624147); further: 0% is about no effect
# Measurement Conditions: purified enzyme assay, luminescence, 45 min; series mostly up to 57.5 µM
Results filed as inconclusive are left out. Active and inactive are the calls of the source. Calls come from the whole dose curve; as a rule, active = well fitted inhibition curve with a large enough effect; inconclusive = small, poorly fitted or top-dose-only effect; inactive = flat fitted curve, though single readings scatter.
Metric: outcome

Some entries whose results are on file:
Cc1scc2c1N(C(=O)CN1CCN(C)CC1)c1ccccc1NC2=O : inactive
CCN1CCc2nc(N)oc2CC1 : inactive
COC(=O)[C@H]1[C@H]2C[C@@H]3c4[nH]c5cc(OC)ccc5c4CCN3C[C@H]2C[C@@H](OC(=O)c2cc(OC)c(OC)c(OC)c2)[C@@H]1OC : inactive
CN/C(=C\[N+](=O)[O-])NCCSCc1ccc(CN(C)C)o1 : inactive

Please report outcome for every entry that follows.
1. CC(C)COCC(CN(Cc1ccccc1)c1ccccc1)N1CCCC1 (stereo not given)
2. CC(=O)OCC1=C(C(=O)O)N2C(=O)[C@@H](NC(=O)Cc3cccs3)[C@H]2SC1
3. O=C1CC2(CCCC2)CC(=O)N1CCCCN1CCN(c2ncccn2)CC1
4. COCCc1ccc(OCC(O)CNC(C)C)cc1 (stereo not given)
5. NC1=NCC2c3ccccc3Cc3ccccc3N12 (stereo not given)
6. C[n+]1cc2c3c(ccc2c2ccc4cc5c(cc4c21)OCO5)OCO3
7. C#CCN(C)CCCOc1ccc(Cl)cc1Cl
8. CCc1cccc(N(C)C(N)=Nc2cccc3ccccc23)c1

inactive
inactive
inactive
inactive
inactive
inactive
inactive
inactive

Look at each compound and report its outcome.
1. CCOC(=O)C1=C(C)NC(C)=C(C(=O)OC)C1c1cccc(Cl)c1Cl (stereo not given)
2. c1ccc2c(c1)CCCC2C1=NCCN1 (stereo not given)
3. CC(N=C(NC#N)Nc1ccncc1)C(C)(C)C (stereo not given)

1: inactive; 2: inactive; 3: inactive

----------
# Tested on: SKOV3
# Method: Primary qHTS to identify gynecologic anti-cancer compounds using libraries of approved drugs and bioactive compounds (AID 1345084); further: on the % scale 0 is the no-effect control and ±100 the full control effect; nearly all actives have a fitted effect of over 55% in size
# Measurement Conditions: Gynecologic cancer cell panel viability, ATPlite luminescence, 48 h; series mostly up to 57.5 µM
Records with an inconclusive call do not appear. Calls of active or inactive are those of the source. Calls come from the whole dose curve; as a rule, active = well fitted cell-killing curve with a large enough effect; inconclusive = small, poorly fitted or top-dose-only effect, or effect the other way; inactive = flat fitted curve, though single readings scatter.
Metric: activity change, negative = cytotoxicity

Past entries and their recorded results:
CN1CCN(C2=Nc3ccccc3Oc3ccc(Cl)cc32)CC1 : inactive
CN(C)C/C=C(/c1ccc(Br)cc1)c1cccnc1 : inactive
CN1C(=O)CC[C@H]1c1cccnc1 : inactive
CNCCC(Oc1ccccc1OC)c1ccccc1 (stereo unspecified) : inactive
Cc1scc2c1N(C(=O)CN1CCN(C)CC1)c1ccccc1NC2=O : inactive

Switching to the query record.
Report activity change, negative = cytotoxicity for O=C(O)CN(CCOCCOCCN(CC(=O)O)CC(=O)O)CC(=O)O
17.7% [at 0.462 µM] (inactive)

----------
# Test system: Tov-21-G
# Method: Primary qHTS to identify gynecologic anti-cancer compounds using libraries of approved drugs and bioactive compounds (AID 1345084); further: on the % scale 0 is the no-effect control and ±100 the full control effect; nearly all actives have a fitted effect of over 55% in size
# Measurement Conditions: Gynecologic cancer cell panel viability, ATPlite luminescence, 48 h; series mostly up to 57.5 µM
# Source text: National Center for Advancing Translational Sciences [NCATS] Assay Overview: Chemotherapeutic drug responses vary from cancer to cancer and from patient to patient. […] ATPlite is a luminescence based assay reliant on the conversion of a luciferase substrate to light in the presence of ATP. As a cytotoxic compound will suppress growth and decrease the number of cells, the concentration of ATP will decrease, and less light signal will be detected in the well. […]
Results filed as inconclusive are left out. The source made the active and inactive calls. Calls come from the whole dose curve; as a rule, active = well fitted cell-killing curve with a large enough effect; inconclusive = small, poorly fitted or top-dose-only effect, or effect the other way; inactive = flat fitted curve, though single readings scatter.
Metric: activity change, negative = cytotoxicity

CCc1c(C)[nH]c2c1C(=O)C(CN1CCOCC1)CC2 (configuration not stated) : inactive
O=C(CCCN1CCC(O)(c2cccc(C(F)(F)F)c2)CC1)c1ccc(F)cc1 : inactive
C=CCc1ccccc1OCC(O)CNC(C)C (configuration not stated) : inactive
CN1CCN(C2=Nc3ccccc3Oc3ccc(Cl)cc32)CC1 : inactive
COCCOC(=O)C1=C(C)NC(C)=C(C(=O)OC(C)C)C1c1cccc([N+](=O)[O-])c1 (configuration not stated) : inactive
Cc1ccc(Cl)c(Nc2ccccc2C(=O)O)c1Cl : inactive

List the reported activity change, negative = cytotoxicity of each compound below.
1. NC(=O)N1c2ccccc2C=Cc2ccccc21
2. CCn1cc(C(=O)O)c(=O)c2cc3c(cc21)OCO3
3. C[N+](C)(C)CCOC(=O)CCC(=O)OCC[N+](C)(C)C
4. CC(=O)Oc1cc(C(C)C)c(OCCN(C)C)cc1C
5. Cc1nnc(SCC2=C(C(=O)O)N3C(=O)[C@@H](NC(=O)Cn4cnnn4)[C@H]3SC2)s1
6. O=C(CCNNC(=O)c1ccncc1)NCc1ccccc1

inactive
inactive
inactive
inactive
inactive
inactive
